Examples of compounds with documented pIC50 follow.
- study_target: full-length human PKCι (Homo sapiens, UniProt P41743)
- Construct: Recombinant, full-length human PKCι expressed in Sf21 insect cells is also commercially available
- Sequence (P41743 1-596): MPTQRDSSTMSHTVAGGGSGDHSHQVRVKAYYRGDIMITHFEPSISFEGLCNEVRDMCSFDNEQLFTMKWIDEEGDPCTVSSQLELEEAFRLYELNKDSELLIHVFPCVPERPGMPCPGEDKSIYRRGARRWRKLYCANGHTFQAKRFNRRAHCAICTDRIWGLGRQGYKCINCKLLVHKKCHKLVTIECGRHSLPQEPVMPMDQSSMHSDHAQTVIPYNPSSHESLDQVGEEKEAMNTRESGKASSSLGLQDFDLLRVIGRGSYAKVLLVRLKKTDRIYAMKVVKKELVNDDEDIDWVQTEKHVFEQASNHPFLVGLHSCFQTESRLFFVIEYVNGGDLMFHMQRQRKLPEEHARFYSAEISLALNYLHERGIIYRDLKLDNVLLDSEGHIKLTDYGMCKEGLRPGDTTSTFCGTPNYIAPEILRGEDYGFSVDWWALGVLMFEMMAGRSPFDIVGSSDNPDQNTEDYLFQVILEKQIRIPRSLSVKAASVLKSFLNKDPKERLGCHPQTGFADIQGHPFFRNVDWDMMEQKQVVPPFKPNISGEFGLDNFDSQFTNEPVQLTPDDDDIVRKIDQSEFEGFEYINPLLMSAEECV
- method_notes: PKCι IC50 IMAP assay, full-length PKCι at 150 μM ATP
- condition_description: read-out: IC50 in IMAP assay against full length PKCi at 150 μM ATP
pIC50: −log10 of the molar value.

compound | pIC50
COc1cncc2nc(-c3ccncc3)nc(N3CCN[C@@H](C(F)c4ccccc4)C3)c12 (stereo partly shown) [Example 74] | > 7.00
CN1CCN(c2cccc(Nc3cc(-c4nc(N5CC[C@H](O)C5)c5c(C6CC6)cncc5n4)ccn3)c2)CC1 [Example 727] | > 7.00
Fc1cc(F)c(Nc2cc(-c3nc(NC4CCNCC4)c4c(C5CC5)cncc4n3)ccn2)nc1F [Example 2065] | > 7.00
COc1cncc2nc(-c3ccnc(NC(=O)Cc4ccccc4)c3)nc(N3CCNCC3)c12 [Example 371] | > 7.00
COc1cncc2nc(-c3ccnc(Nc4ccccc4)c3)nc(N3CC[C@H](CO)C3)c12 [Example 466] | 5.00 to 6.00
CC(C)(C)OC(=O)N1CCN(c2nc(-c3ccncc3)nc3cnccc23)CC1 [Example 22] | 4.40 to 5.00
Cc1ccc(Cl)c(Nc2cc(-c3nc(N4CCNCC4)c4c(C5CC5)cncc4n3)ccn2)c1 [Example 577] | > 7.00
CS(=O)(=O)C[C@H]1CN(c2nc(-c3ccnc(Nc4ccccc4)c3)nc3cncc(C4CC4)c23)CCN1 [Example 769] | > 7.00

CCCCc1cncc2nc(-c3ccncc3)nc(N3CCNCC3)c12 [Example 135] yielded pIC50 of > 7.00

COc1cncc2nc(-c3ccnc(Nc4nc(C5CC5)cs4)c3)nc(N3CCNCC3)c12 [Example 204] yielded pIC50 of > 7.00

COCCN1CCN(c2nc(-c3ccnc(NC(=O)C4CC4)c3)nc3cncc(C4CC4)c23)CC1 [Example 666] yielded pIC50 of 5.00 to 6.00

====

- study_target: full-length human PKCι (Homo sapiens, UniProt P41743)
- Construct: Recombinant, full-length human PKCι expressed in Sf21 insect cells is also commercially available
- method_notes: PKCι IC50 IMAP assay, full-length PKCι at 150 μM ATP
- condition_description: read-out: IC50 in IMAP assay against full length PKCi at 150 μM ATP
Examples of compounds with documented IC50 follow.

Worked cases, IC50 given:
molecule | study_target | IC50
Fc1cc(F)c2nc(Nc3cc(-c4nc(N5CCNCC5)c5c(C6CC6)cncc5n4)ccn3)nn2c1 | full-length human PKCι (Homo sapiens, UniProt P41743) | < 100 nM
c1cc(-c2nc(N3CCNCC3)c3c(C4CC4)cncc3n2)cc(Nc2cnn(C3CCOCC3)c2)n1 | full-length human PKCι (Homo sapiens, UniProt P41743) | < 100 nM
Fc1ncc(C2CC2)c2c(N3CCNCC3)nc(-c3ccnc4[nH]c(C(F)(F)F)cc34)nc12 | full-length human PKCι (Homo sapiens, UniProt P41743) | < 100 nM
COc1cncc2nc(-c3ccnc(Nc4ncccc4C)c3)nc(N3CCNCC3)c12 | full-length human PKCι (Homo sapiens, UniProt P41743) | 100 to 1000 nM
CC1(C)CN(c2nc(-c3ccnc(Nc4nc(F)cc(F)c4F)c3)nc3cncc(C4CC4)c23)CCN1 | full-length human PKCι (Homo sapiens, UniProt P41743) | < 100 nM
c1cc(-c2nc(N3CCNCC3)c3c(C4CCC4)cncc3n2)c2cc(C3CCC3)[nH]c2n1 | full-length human PKCι (Homo sapiens, UniProt P41743) | < 100 nM
CC1(C)C(=O)Nc2nccc(-c3nc(N4CCNCC4)c4c(C5CC5)cncc4n3)c21 | full-length human PKCι (Homo sapiens, UniProt P41743) | 1000 to 10000 nM

`NC(=O)c1ccc(Nc2cc(-c3nc(N[C@@H]4CCNC4)c4ccncc4n3)ccn2)cc1` yielded IC50 of 100 to 1000 nM

====

- study_target: full-length human PKCι (Homo sapiens)
- Construct: Recombinant, full-length human PKCι expressed in Sf21 insect cells is also commercially available
- Sequence (P41743 1-596): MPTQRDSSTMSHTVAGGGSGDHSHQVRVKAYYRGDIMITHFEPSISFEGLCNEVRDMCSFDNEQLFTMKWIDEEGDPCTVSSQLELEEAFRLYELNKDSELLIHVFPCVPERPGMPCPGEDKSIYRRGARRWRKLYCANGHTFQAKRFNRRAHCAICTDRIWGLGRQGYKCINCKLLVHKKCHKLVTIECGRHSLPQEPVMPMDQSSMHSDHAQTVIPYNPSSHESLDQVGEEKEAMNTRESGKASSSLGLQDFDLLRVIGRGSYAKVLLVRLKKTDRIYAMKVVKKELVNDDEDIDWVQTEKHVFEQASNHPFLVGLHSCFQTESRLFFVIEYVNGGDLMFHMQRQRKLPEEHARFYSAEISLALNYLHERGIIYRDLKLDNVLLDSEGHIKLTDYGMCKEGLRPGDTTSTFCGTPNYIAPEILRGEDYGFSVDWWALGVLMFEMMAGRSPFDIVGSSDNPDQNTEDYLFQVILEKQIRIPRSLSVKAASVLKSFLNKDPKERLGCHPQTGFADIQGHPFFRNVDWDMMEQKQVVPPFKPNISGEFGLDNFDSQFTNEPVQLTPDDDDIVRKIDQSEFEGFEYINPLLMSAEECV
- method_notes: PKCι IC50 IMAP assay, full-length PKCι at 150 μM ATP
- condition_description: read-out: IC50 in IMAP assay against full length PKCi at 150 μM ATP
pIC50: −log10 of the molar value.
Examples of compounds with documented pIC50 follow.

`COc1cncc2nc(-c3ccnc(Nc4ccc(N5CCNCC5)nc4)c3)nc(N3CCNCC3)c12` yielded pIC50 of > 7.00

`[2H]c1c([2H])c([2H])c(Nc2cc(-c3nc(N4CCNCC4)c4c(C5CC5)cncc4n3)ccn2)c([2H])c1[2H]` yielded pIC50 of > 7.00

`Cc1ccccc1-c1nccc2c(NC[C@@H](N)Cc3ccccc3)nc(-c3ccncc3)nc12` yielded pIC50 of 5.00 to 6.00

`CC(C)c1ccc(Nc2cc(-c3nc(N4CCNCC4)c4c(C5CC5)cncc4n3)ccn2)c(F)c1` yielded pIC50 of > 7.00

`Oc1nc(-c2ccnc(Nc3cnn(CC4CCNCC4)c3)c2)nc2cnccc12` yielded pIC50 of 4.40 to 5.00

`COc1cncc2nc(-c3ccncc3)nc(N3CCN4C(=O)OC[C@H]4C3)c12` yielded pIC50 of 5.00 to 6.00

`Nc1ccccc1C(=O)Nc1cc(-c2nc(N[C@@H]3CCNC3)c3ccncc3n2)ccn1` yielded pIC50 of 6.00 to 7.00

`COc1cncc2nc(-c3ccnc(NC(=O)Cc4ccc(C(F)(F)F)cc4)c3)nc(N3CCNCC3)c12` yielded pIC50 of > 7.00

`Fc1cc(C2CC2)c(F)nc1Nc1cc(-c2nc(N3CCNCC3)c3c(C4CC4)cncc3n2)ccn1` yielded pIC50 of > 7.00

====

Examples of compounds with documented pIC50 follow.
- study_target: full-length human PKCι (Homo sapiens, UniProt P41743)
- Construct: Recombinant, full-length human PKCι expressed in Sf21 insect cells is also commercially available
- method_notes: PKCι IC50 IMAP assay, full-length PKCι at 150 μM ATP
- condition_description: read-out: IC50 in IMAP assay against full length PKCi at 150 μM ATP
pIC50: −log10 of the molar value.

compound | quantity | meas_value
Cn1cc(CNc2cc(-c3nc(N4CCNCC4)c4c(C5CC5)cncc4n3)ccn2)cn1 [Example 758] | pIC50 | > 7.00
COc1cncc2nc(-c3ccnc(NC(=O)c4cccs4)c3)nc(N[C@@H]3CCNC3)c12 [Example 240] | pIC50 | > 7.00

Fc1cnc(Nc2cc(-c3nc(N4CCC(C5CCOCC5)C4)c4c(C5CC5)cncc4n3)ccn2)c(F)c1 (centres unmarked) [Example 2173] yielded pIC50 of 5.00 to 6.00

N[C@H](CNc1nc(-c2ccncc2)nc2c(-c3ccncc3)nccc12)Cc1ccccc1 [Example 100] yielded pIC50 of 6.00 to 7.00

FC(F)(F)c1ccc(Nc2cc(-c3nc(N[C@@H]4CCNC4)c4ccncc4n3)ccn2)nc1 [Example 351] yielded pIC50 of > 7.00

COc1cncc2nc(-c3ccnc(Nc4ncco4)c3)nc(N3CCNCC3)c12 [Example 220] yielded pIC50 of > 7.00

C[C@H]1CN(c2nc(-c3ccnc4[nH]c(C(F)(F)F)cc34)nc3cncc(C4CC4)c23)CCN1 [Example 1233] yielded pIC50 of > 7.00

COc1cncc2nc(-c3ccnc(Nc4cc(C#N)ccn4)c3)nc(N3CCN(C)CC3)c12 [Example 397] yielded pIC50 of 6.00 to 7.00
